test system: A2780; experiment: Cellular proliferation assay (Alamar blue), A2780; assay type: cell-based; conditions: Homo sapiens, A2780, A2780 cells; 10% FCS; 72 h with compound; Alamar blue 24 h; read-out: pIC50 A2780 (converted)
The entries below come with measured IC50 values attached.

Worked set:
{"test_smiles": "Cc1nc2c3c(c[nH]c3n1)CN(C)CCCN(C)C(=O)COc1cc(ccc1Cl)N2", "IC50": "1580 nM"}
{"test_smiles": "COCCOCCOc1ccc2cc1OCC(=O)N(C)CCCN(C)Cc1c[nH]c3ncnc(c13)N2", "IC50": "398 nM"}
{"test_smiles": "CC(C)Oc1ccc2cc1OCC(=O)N(C)CCCN(C)Cc1c[nH]c3ncnc(c13)N2", "IC50": "1580 nM"}

# context switch: different molecule, same IC50
[ask] IC50 for CN1CCN(C)C(=O)COc2cc(ccc2N2CCOCC2)Nc2ncnc3[nH]cc(c23)C1 ?
[reply] > 10000 nM

----------
Test system: U87-MG
Test: Cellular proliferation assay (Alamar blue), U87-MG
Assay type: cell-based
Settings: Homo sapiens, U-87 MG; U87-MG cells; 10% FCS; 72 h with compound; Alamar blue 6 h; read-out: pIC50 U87MG (converted)
Procedure: Cellular proliferation of these compounds was tested on a panel of different cell lines in the presence of 10% FCS serum (37° C. and 5% (v/v) CO2). In a first step these cells were seeded and incubated for 24 hours in the absence of compound. In the second step the cells were incubated for 72 hours with the compounds to be tested for 72 hours. The viable cell number was finally assessed in a standard Alamar blue cell viability assay. […]
Label rule met when IC50 is strictly below 2 µM; otherwise label rule not met.

A selection of reference data follows.
{"compound": "CN1CCCN(C)C(=O)COc2cc(ccc2N2CCCC2)Nc2ncnc3[nH]cc(c23)C1 [Compound 82]", "cat": "rule met"}
{"compound": "COCCN1CC(=O)N(C)CCCc2c[nH]c3ncnc(c23)Nc2ccc(OC)c(c2)C1 [Compound 36]", "cat": "rule not met"}
{"compound": "COc1ccc2cc1CCC(=O)N(C)CCN(C)Cc1c[nH]c3ncnc(c13)N2 [Compound 46]", "cat": "rule not met"}
{"compound": "CN1CCCN(C)C(=O)COc2cc(ccc2OCC2CCN(Cc3ccccc3)CC2)Nc2ncnc3[nH]cc(c23)C1 [Compound 149]", "cat": "rule met"}
{"compound": "CN1CCCN(C)C(=O)COc2cc(ccc2OCCNc2ncccn2)Nc2ncnc3[nH]cc(c23)C1 [Compound 159]", "cat": "rule not met"}
{"compound": "COc1ccc2cc1OCC(=O)N(C)CCCN(Cc1ccccc1)Cc1c[nH]c3ncnc(c13)N2 [Compound 61]", "cat": "rule not met"}
{"compound": "COc1ccc2cc1CN1CCCC(C1)C(=O)N(C)CCCc1c[nH]c3ncnc(c13)N2 (stereo not drawn) [Compound 35]", "cat": "rule not met"}
{"compound": "CCOCCOc1ccc2cc1OCC(=O)N(C)CCCNCc1c[nH]c3ncnc(c13)N2 [Compound 75]", "cat": "rule not met"}

[ask] In plain terms, does CCOCCOc1ccc2cc1OCC(=O)N(C)CCCN(C)Cc1c[nH]c3ncnc(c13)N2 [Compound 70] come in under 2 µM for IC50?
[reply] rule met

[ask] Try this compound too: COc1ccc(NC(=O)COc2ccc3cc2OCC(=O)N(C)CCCN(C)Cc2c[nH]c4ncnc(c24)N3)cc1 [Compound 129]
[reply] rule met

[ask] Try this compound too: CN1CCCN(C)C(=O)COc2cc(ccc2Br)Nc2ncnc3[nH]cc(c23)C1 [Compound 139]
[reply] rule met

[ask] Try this compound too: COc1ccc2cc1OCC(=O)NCN(C)CCCc1c[nH]c3ncnc(c13)N2 [Compound 33]
[reply] rule not met

[ask] Try this compound too: COc1ccc(OCCOc2ccc3cc2OCC(=O)N(C)CCCN(C)Cc2c[nH]c4ncnc(c24)N3)cc1 [Compound 155]
[reply] rule met

[ask] Try this compound too: CN1CCN(C)C(=O)CCCCOc2cc(ccc2N2CCOCC2)Nc2ncnc3[nH]cc(c23)C1 [Compound 48]
[reply] rule not met

[ask] Try this compound too: COc1ccc2cc1CN(C(C)C)CC(=O)N(C)CCCc1c[nH]c3ncnc(c13)N2 [Compound 37]
[reply] rule not met

[ask] Try this compound too: O=C1CCCOc2cccc(c2)Nc2ncnc3[nH]cc(c23)CN2CCN1CC2 [Compound 107]
[reply] rule not met

[ask] Try this compound too: COc1cc2cc(c1OC)CN(C)CC(=O)N(C)CCCc1c[nH]c3ncnc(c13)N2 [Compound 72]
[reply] rule not met

[ask] Try this compound too: CN1CCN(C)C(=O)CCc2cccc(c2)Nc2ncnc3[nH]cc(c23)C1 [Compound 20]
[reply] rule not met

[ask] Try this compound too: CN1CCCN(C)C(=O)COc2cc(ccc2OCCOc2ccc(Cl)cc2)Nc2ncnc3[nH]cc(c23)C1 [Compound 134]
[reply] rule not met

[ask] Try this compound too: CN1CCN(C)C(=O)CCCOc2cc(ccc2N2CCOCC2)Nc2ncnc3[nH]cc(c23)C1 [Compound 40]
[reply] rule not met

[ask] Try this compound too: COc1ccc2cc1OCCCCC(=O)N(C)CCCN(C)Cc1c[nH]c3ncnc(c13)N2 [Compound 16]
[reply] rule not met

[ask] Try this compound too: COc1ccc2cc1OCC(=O)N(C)CCCN(C)Cc1c[nH]c3ncnc(c13)N2 [Compound 7]
[reply] rule met

[ask] Try this compound too: COc1cc2cc(c1OC)OCCCC(=O)N1CCN(CC1)Cc1c[nH]c3ncnc(c13)N2 [Compound 112]
[reply] rule not met

[ask] Try this compound too: CN1CCN(C)C(=O)CCCCOc2cccc(c2)Nc2ncnc3[nH]cc(c23)C1 [Compound 2]
[reply] rule not met

[ask] Try this compound too: COc1ccc2cc1CN(C)CCCC(=O)N(C)CCCc1c[nH]c3ncnc(c13)N2 [Compound 5]
[reply] rule not met

[ask] Try this compound too: CN1CC(=O)NCCOc2cccc(c2)Nc2ncnc3[nH]cc(c23)C1 [Compound 23]
[reply] rule met

----------
system: A2780; experiment: Cellular proliferation assay (Alamar blue), A2780; assay type: cell-based; conditions: Homo sapiens, A2780, A2780 cells; 10% FCS; 72 h with compound; Alamar blue 24 h; read-out: pIC50 A2780 (converted)
The entries below come with measured IC50 values attached.

{"compound": "CN1CCCN(C)C(=O)COc2cc(ccc2OCC(=O)NC2CCCCC2)Nc2ncnc3[nH]cc(c23)C1 [Compound 118]", "assay_value": "398 nM"}
{"compound": "CN1CCCN(C)C(=O)CCCOc2cc(cc(C(F)(F)F)c2)Nc2ncnc3[nH]cc(c23)C1 [Compound 83]", "assay_value": "> 10000 nM"}
{"compound": "O=C1CCCOc2cc(ccc2Cl)Nc2ncnc3[nH]cc(c23)CN2CCN1CC2 [Compound 106]", "assay_value": "> 10000 nM"}
{"compound": "CN1CCCN(C)C(=O)COc2cc(cc(C(F)(F)F)c2)Nc2ncnc3[nH]cc(c23)C1 [Compound 54]", "assay_value": "> 10000 nM"}
{"compound": "CN1CCCN(C)C(=O)COc2cc(ccc2NC(=O)Nc2cc(Cl)cc(Cl)c2)Nc2ncnc3[nH]cc(c23)C1 [Compound 115]", "assay_value": "1000 nM"}

[ask] IC50 for CN1CCCN(C)C(=O)COc2cc(ccc2OCCSc2ccc(Cl)cc2)Nc2ncnc3[nH]cc(c23)C1 [Compound 150] ?
[reply] 63.1 nM

[ask] Try this compound too: COc1ccc2cc1OCCCNC(=O)CN(C)Cc1c[nH]c3ncnc(c13)N2 [Compound 6]
[reply] 1580 nM

[ask] Try this compound too: CN1CCN(C)C(=O)CCCCOc2cc(ccc2N2CCOCC2)Nc2ncnc3[nH]cc(c23)C1 [Compound 48]
[reply] > 10000 nM

----------
biological target: PLK4 (h) (Homo sapiens, UniProt O00444); assay: PLK-4 human kinase scintillation proximity assay (SPA); type: biochemical; conditions: 1 μM ATP, 60 minutes at r.t., read-out: PLK4 pIC50 (converted)
Sequence (O00444 whole entry): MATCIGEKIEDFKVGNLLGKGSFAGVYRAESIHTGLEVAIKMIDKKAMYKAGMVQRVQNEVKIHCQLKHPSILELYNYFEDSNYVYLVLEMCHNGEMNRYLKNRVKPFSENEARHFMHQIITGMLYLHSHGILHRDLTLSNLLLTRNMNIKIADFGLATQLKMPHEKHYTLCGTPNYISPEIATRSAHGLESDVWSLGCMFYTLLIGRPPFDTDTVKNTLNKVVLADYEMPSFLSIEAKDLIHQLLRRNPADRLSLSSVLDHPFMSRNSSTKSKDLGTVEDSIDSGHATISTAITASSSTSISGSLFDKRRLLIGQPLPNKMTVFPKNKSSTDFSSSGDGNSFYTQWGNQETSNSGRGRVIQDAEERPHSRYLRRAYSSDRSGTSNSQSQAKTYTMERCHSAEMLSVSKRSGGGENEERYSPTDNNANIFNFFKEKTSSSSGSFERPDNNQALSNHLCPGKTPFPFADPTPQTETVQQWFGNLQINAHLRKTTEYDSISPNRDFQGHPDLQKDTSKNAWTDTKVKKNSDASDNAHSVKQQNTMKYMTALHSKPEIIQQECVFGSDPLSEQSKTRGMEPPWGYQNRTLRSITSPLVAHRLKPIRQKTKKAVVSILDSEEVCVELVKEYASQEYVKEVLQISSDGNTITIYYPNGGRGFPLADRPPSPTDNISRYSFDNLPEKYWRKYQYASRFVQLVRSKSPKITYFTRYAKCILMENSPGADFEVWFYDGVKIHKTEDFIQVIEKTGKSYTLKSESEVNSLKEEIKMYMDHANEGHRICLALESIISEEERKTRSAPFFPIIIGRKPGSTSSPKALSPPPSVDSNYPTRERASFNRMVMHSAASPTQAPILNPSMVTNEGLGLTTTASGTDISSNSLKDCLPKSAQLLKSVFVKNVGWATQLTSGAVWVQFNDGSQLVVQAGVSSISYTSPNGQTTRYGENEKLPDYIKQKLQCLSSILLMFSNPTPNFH
The entries below come with measured IC50 values attached.
The reply should contain only the number, in nM.

Worked set:
{"molecule": "COCCOc1ccc2cc1OCC(=O)N(C)CCCNCc1c[nH]c3ncnc(c13)N2 [Compound 138]", "IC50 [nM]": 25.1}
{"molecule": "CN1CCCN(C)C(=O)COc2cc(ccc2OCC(=O)NC2CC2)Nc2ncnc3[nH]cc(c23)C1 [Compound 125]", "IC50 [nM]": 25.1}
{"molecule": "O=C1CCCOc2cc(ccc2Cl)Nc2ncnc3[nH]cc(c23)CN2CCN1CC2 [Compound 106]", "IC50 [nM]": 6310}

# context switch: different molecule, same IC50
[ask] IC50 for CN1CCCN(C)C(=O)COc2cc(ccc2OCCOc2ccc(Cl)cc2)Nc2ncnc3[nH]cc(c23)C1 [Compound 134] ?
[reply] 79.4
